Tested on: OPC differentiation
Assay: Oligodendrocyte precursor cell (OPC) differentiation assay (MBP immunocytochemistry)
Format: cell-based, rat
Details: Rattus norvegicus, Oligodendrocyte precursor cell, 96 h; 0.3 nM-10 uM, 4 days, FIG. 1; read-out: EC50, promotion of OPC differentiation (MBP+ population)
Counter-ions that a name gives are not always drawn.
measurement.label: EC50 (nM)

Record excerpt, results attached:
>>> print(df.to_string())
                                   compound  observed
0  c1cc2c(cc1-c1noc(CC3CCN(C4CCC4)CC3)n1)OCO2        25
1  N=C(NCc1ccc(Cl)cc1)SCCCc1c[nH]cn1 [Example compound 8, dihydrobromide, reference compound]        48

P = CC(C)N1CCC(OC2CCN(c3ccc(C#N)cc3)CC2)CC1 [Example compound 3, hydrochloride]
Q = Clc1ccc(CCCOCCCN2CCCCC2)cc1 [Example compound 6, reference compound]
R = C[C@@H]1CCCN1CCCOc1ccc(-c2ccc(=O)[nH]n2)cc1 [Example compound 7, reference compound]
hey, can you rank those compounds up there by EC50? biggest number first please When ranking, write the labels in the order the request describes. R, P, Q

====

Test system: OPC differentiation
Assay: Oligodendrocyte precursor cell (OPC) differentiation assay (MBP immunocytochemistry)
Type: cell-based, rat
Details: Rattus norvegicus, Oligodendrocyte precursor cell, two experiments (n=2), FIG. 3a; read-out: EC50, promotion of OPC differentiation
measurement.label: pEC50
Note: pEC50 values are expressed as the negative base-10 logarithm of concentration in M.

Please supply the value of reported pEC50 for the item O=C1CCCN1c1ccc(Oc2ccc3c(c2)CCN(C2CCC2)CC3)nc1 6.93
